- ASSAY COMMENT: Hygroscopicity test (60° C./100% RH, 24 hours, Karl Fischer water content)
- Type: physicochemical
- ASSAY CONTEXT: left for 24 hours in a dessicator set at humidity 100%, temperature 60° C.
ASSAY ENDPOINT: hygroscopicity (water content after exposure)

Provide measured hygroscopicity (water content after exposure) value, entry: O=C1CCc2ccc(OCCCCN3CCN(c4cccc(Cl)c4Cl)CC3)cc2N1 [Example 4, aripiprazole]
≤ 0.4%

Provide measured hygroscopicity (water content after exposure) value, entry: O=C1CCc2ccc(OCCCCN3CCN(c4cccc(Cl)c4Cl)CC3)cc2N1 [Reference Example 2, aripiprazole]
1.78%

Provide measured hygroscopicity (water content after exposure) value, entry: O=C1CCc2ccc(OCCCCN3CCN(c4cccc(Cl)c4Cl)CC3)cc2N1 [Example 5, aripiprazole]
≤ 0.4%

Provide measured hygroscopicity (water content after exposure) value, entry: O=C1CCc2ccc(OCCCCN3CCN(c4cccc(Cl)c4Cl)CC3)cc2N1 [Reference Example 1, aripiprazole]
3.28%

Provide measured hygroscopicity (water content after exposure) value, entry: O=C1CCc2ccc(OCCCCN3CCN(c4cccc(Cl)c4Cl)CC3)cc2N1 [Example 8, aripiprazole]
≤ 0.4%

Provide measured hygroscopicity (water content after exposure) value, entry: O=C1CCc2ccc(OCCCCN3CCN(c4cccc(Cl)c4Cl)CC3)cc2N1 [Example 15, aripiprazole]
≤ 0.4%

Provide measured hygroscopicity (water content after exposure) value, entry: O=C1CCc2ccc(OCCCCN3CCN(c4cccc(Cl)c4Cl)CC3)cc2N1 [Example 11, aripiprazole]
≤ 0.4%

Provide measured hygroscopicity (water content after exposure) value, entry: O=C1CCc2ccc(OCCCCN3CCN(c4cccc(Cl)c4Cl)CC3)cc2N1 [Example 13, aripiprazole]
≤ 0.4%

Provide measured hygroscopicity (water content after exposure) value, entry: O=C1CCc2ccc(OCCCCN3CCN(c4cccc(Cl)c4Cl)CC3)cc2N1 [Example 6, aripiprazole]
≤ 0.4%

Provide measured hygroscopicity (water content after exposure) value, entry: O=C1CCc2ccc(OCCCCN3CCN(c4cccc(Cl)c4Cl)CC3)cc2N1 [Anhydrous Aripiprazole Crystals B, aripiprazole]
≤ 0.4%

Provide measured hygroscopicity (water content after exposure) value, entry: O=C1CCc2ccc(OCCCCN3CCN(c4cccc(Cl)c4Cl)CC3)cc2N1 [Example 9, aripiprazole]
≤ 0.4%

Provide measured hygroscopicity (water content after exposure) value, entry: O=C1CCc2ccc(OCCCCN3CCN(c4cccc(Cl)c4Cl)CC3)cc2N1 [Example 2, aripiprazole]
≤ 0.4%

Provide measured hygroscopicity (water content after exposure) value, entry: O=C1CCc2ccc(OCCCCN3CCN(c4cccc(Cl)c4Cl)CC3)cc2N1 [Example 14, aripiprazole]
≤ 0.4%

Provide measured hygroscopicity (water content after exposure) value, entry: O=C1CCc2ccc(OCCCCN3CCN(c4cccc(Cl)c4Cl)CC3)cc2N1 [Example 12, aripiprazole]
≤ 0.4%

Provide measured hygroscopicity (water content after exposure) value, entry: O=C1CCc2ccc(OCCCCN3CCN(c4cccc(Cl)c4Cl)CC3)cc2N1 [Example 7, aripiprazole]
≤ 0.4%

Provide measured hygroscopicity (water content after exposure) value, entry: O=C1CCc2ccc(OCCCCN3CCN(c4cccc(Cl)c4Cl)CC3)cc2N1 [Example 3, aripiprazole]
≤ 0.4%

---

I'd appreciate it if you could supply Initial Moisture Content (%) values for the items below.
- ASSAY COMMENT: Hygroscopicity test (60° C./100% RH, 24 hours, Karl Fischer water content)
- Format: physicochemical
- ASSAY CONTEXT: before exposure to 60° C./100% humidity
Form entry: value (%) — number only.

Provide measured Initial Moisture Content (%) value, entry: O=C1CCc2ccc(OCCCCN3CCN(c4cccc(Cl)c4Cl)CC3)cc2N1 [Example 10, aripiprazole]
0.05

Provide measured Initial Moisture Content (%) value, entry: O=C1CCc2ccc(OCCCCN3CCN(c4cccc(Cl)c4Cl)CC3)cc2N1 [Example 8, aripiprazole]
0.04

Provide measured Initial Moisture Content (%) value, entry: O=C1CCc2ccc(OCCCCN3CCN(c4cccc(Cl)c4Cl)CC3)cc2N1 [Example 5, aripiprazole]
0.04

Provide measured Initial Moisture Content (%) value, entry: O=C1CCc2ccc(OCCCCN3CCN(c4cccc(Cl)c4Cl)CC3)cc2N1 [Example 9, aripiprazole]
0.03

Provide measured Initial Moisture Content (%) value, entry: O=C1CCc2ccc(OCCCCN3CCN(c4cccc(Cl)c4Cl)CC3)cc2N1 [Example 13, aripiprazole]
0.04

Provide measured Initial Moisture Content (%) value, entry: O=C1CCc2ccc(OCCCCN3CCN(c4cccc(Cl)c4Cl)CC3)cc2N1 [Example 7, aripiprazole]
0.04

Provide measured Initial Moisture Content (%) value, entry: O=C1CCc2ccc(OCCCCN3CCN(c4cccc(Cl)c4Cl)CC3)cc2N1 [Reference Example 1, aripiprazole]
0.04

Provide measured Initial Moisture Content (%) value, entry: O=C1CCc2ccc(OCCCCN3CCN(c4cccc(Cl)c4Cl)CC3)cc2N1 [Example 15, aripiprazole]
0.04

---

- ASSAY COMMENT: Hygroscopicity test (60° C./100% RH, 24 hours, Karl Fischer water content)
- Type: physicochemical
- ASSAY CONTEXT: 24 hours in dessicator at humidity 100%, temperature 60° C.
Mark Yes only for Moisture Content After 24 hrs (%) values smaller than 0.03%; exact matches and larger values are No.

Moisture Content After 24 hrs (%) under 0.03%? Item: O=C1CCc2ccc(OCCCCN3CCN(c4cccc(Cl)c4Cl)CC3)cc2N1 [Example 2, aripiprazole]
No

Moisture Content After 24 hrs (%) under 0.03%? Item: O=C1CCc2ccc(OCCCCN3CCN(c4cccc(Cl)c4Cl)CC3)cc2N1 [Reference Example 1, aripiprazole]
No

Moisture Content After 24 hrs (%) under 0.03%? Item: O=C1CCc2ccc(OCCCCN3CCN(c4cccc(Cl)c4Cl)CC3)cc2N1 [Example 4, aripiprazole]
Yes

Moisture Content After 24 hrs (%) under 0.03%? Item: O=C1CCc2ccc(OCCCCN3CCN(c4cccc(Cl)c4Cl)CC3)cc2N1 [Example 6, aripiprazole]
No

Moisture Content After 24 hrs (%) under 0.03%? Item: O=C1CCc2ccc(OCCCCN3CCN(c4cccc(Cl)c4Cl)CC3)cc2N1 [Example 9, aripiprazole]
Yes

Moisture Content After 24 hrs (%) under 0.03%? Item: O=C1CCc2ccc(OCCCCN3CCN(c4cccc(Cl)c4Cl)CC3)cc2N1 [Example 3, aripiprazole]
Yes

Moisture Content After 24 hrs (%) under 0.03%? Item: O=C1CCc2ccc(OCCCCN3CCN(c4cccc(Cl)c4Cl)CC3)cc2N1 [Example 14, aripiprazole]
No

Moisture Content After 24 hrs (%) under 0.03%? Item: O=C1CCc2ccc(OCCCCN3CCN(c4cccc(Cl)c4Cl)CC3)cc2N1 [Example 10, aripiprazole]
No

Moisture Content After 24 hrs (%) under 0.03%? Item: O=C1CCc2ccc(OCCCCN3CCN(c4cccc(Cl)c4Cl)CC3)cc2N1 [Example 5, aripiprazole]
No

Moisture Content After 24 hrs (%) under 0.03%? Item: O=C1CCc2ccc(OCCCCN3CCN(c4cccc(Cl)c4Cl)CC3)cc2N1 [Reference Example 2, aripiprazole]
No

Moisture Content After 24 hrs (%) under 0.03%? Item: O=C1CCc2ccc(OCCCCN3CCN(c4cccc(Cl)c4Cl)CC3)cc2N1 [Example 15, aripiprazole]
No

---

I'd appreciate it if you could supply Initial Moisture Content (%) values for the items below.
- ASSAY COMMENT: Hygroscopicity test (60° C./100% RH, 24 hours, Karl Fischer water content)
- Type: physicochemical
- ASSAY CONTEXT: before exposure to 60° C./100% humidity

Provide measured Initial Moisture Content (%) value, entry: O=C1CCc2ccc(OCCCCN3CCN(c4cccc(Cl)c4Cl)CC3)cc2N1 [Example 11, aripiprazole]
0.03%

Provide measured Initial Moisture Content (%) value, entry: O=C1CCc2ccc(OCCCCN3CCN(c4cccc(Cl)c4Cl)CC3)cc2N1 [Reference Example 2, aripiprazole]
0.04%

Provide measured Initial Moisture Content (%) value, entry: O=C1CCc2ccc(OCCCCN3CCN(c4cccc(Cl)c4Cl)CC3)cc2N1 [Example 2, aripiprazole]
0.04%

Provide measured Initial Moisture Content (%) value, entry: O=C1CCc2ccc(OCCCCN3CCN(c4cccc(Cl)c4Cl)CC3)cc2N1 [Example 6, aripiprazole]
0.04%

Provide measured Initial Moisture Content (%) value, entry: O=C1CCc2ccc(OCCCCN3CCN(c4cccc(Cl)c4Cl)CC3)cc2N1 [Example 12, aripiprazole]
0.04%

Provide measured Initial Moisture Content (%) value, entry: O=C1CCc2ccc(OCCCCN3CCN(c4cccc(Cl)c4Cl)CC3)cc2N1 [Example 3, aripiprazole]
0.02%

Provide measured Initial Moisture Content (%) value, entry: O=C1CCc2ccc(OCCCCN3CCN(c4cccc(Cl)c4Cl)CC3)cc2N1 [Example 4, aripiprazole]
0.02%

Provide measured Initial Moisture Content (%) value, entry: O=C1CCc2ccc(OCCCCN3CCN(c4cccc(Cl)c4Cl)CC3)cc2N1 [Example 14, aripiprazole]
0.06%
